Method Summary: H69AR cell proliferation blockers – human, duplicate replicates, primary screen (AID 580);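 note: 100% = mean luminescence of untreated wells and 0% = no signal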
Measurement Conditions: H69AR lung tumor cells viability, ATP luminescence, 72 h; at 10 µM; stronger effect = lower value
Attribute Measured: viability (%)

1) CN1CCC(NC(=O)c2cccs2)CC1: 91
2) COc1ccc(NC(=O)CSc2nnc(Cc3cccn3C)n2-c2ccc(F)cc2)cc1: 94.8
3) Cc1cc(C)nc(NC(=O)c2cnc3sccn3c2=O)n1: 96.5
4) CCOC(=O)c1ccc(-n2c(C)nc3c(cnn3-c3ccccc3C)c2=O)cc1: 98.1

----------
Method Summary: H69AR cell proliferation blockers – human, duplicate replicates, primary screen (AID 580);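 note: 100% = mean luminescence of untreated wells and 0% = no signal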
Measurement Conditions: H69AR lung tumor cells viability, ATP luminescence, 72 h; at 10 µM; stronger effect = lower value
Attribute Measured: viability (%)

1) O=C(NCCCN1CCOCC1)c1cc(-c2ccc(O)cc2)on1: 94.8
2) NC(=O)CN1C(=O)C(O)(CC(=O)c2ccccc2O)c2ccccc21 (stereo unspecified): 91.8
3) O=C(Nc1cccc(Cl)c1)N1CCN(Cc2ccccc2)CC1: 84.2
4) COc1cccc(-n2c(SCC(=O)Nc3cc(C)on3)nc3c([nH]c4ccccc43)c2=O)c1: 66.4
5) CC1CC(C)CN(Cc2nc3c(c(=O)n(C)c(=O)n3C)n2Cc2ccccc2Cl)C1 (stereo unspecified): 89.5
6) CCCC(=O)N1CC(=O)Nc2ccc(C)cc2C1c1ccc(F)cc1 (stereo unspecified): 97.4
7) COc1ccccc1S(=O)(=O)Cc1ccc(C(=O)N2CCOCC2)o1: 87.6
8) CCOC(=O)N1CCN(C(=O)CSc2nnc(COc3ccccc3)o2)CC1: 97.2
9) Cc1ccccc1Cn1cc(/C=N/n2cnnc2)c2ccccc21: 95.4
10) CS(=O)(=O)Nc1ccccc1C(=O)O: 98.8
11) COc1ccc(C/C(N)=N/n2cnnc2)cc1Cl: 102

----------
Method Summary: S. cerevisiae growth inhibition in permissive medium (OD615), pilot counter-assay for S. cerevisiae lifespan shortening project, permissive growth control (AID 705)
Measurement Conditions: OD615, 24 h, at 10 µM, stronger effect = higher value
Attribute Measured: growth inhibition (%)

1) COc1cccc(C(=O)Nc2cc(C)c3c(=O)oc4ccccc4c3n2)c1: -1.54
2) c1ccc2c(c1)Cc1cc(CN3CCOCC3)ccc1-2: -14.7
3) O=C(Nc1cnccn1)c1cccs1: -10.4
4) CCn1cc(C(=O)NCC2COc3ccccc3O2)c2cc(OC)c(OC)cc2c1=O (stereo unspecified): -11.4
5) CCOc1ccccc1NC(=O)CSc1nnc(Cc2cccn2C)n1-c1ccc(F)cc1: 5.28
6) COc1cccc(-c2nc3n(n2)C(c2ccccc2Cl)C(C(N)=O)=C(C)N3)c1 (stereo unspecified): -7.99
7) CCCc1cc(C(=O)Nc2cc(OC)c(Cl)cc2OC)no1: -4.69
8) CC1=C(C(N)=O)C(c2ccccn2)n2nc(SCc3ccccc3)nc2N1 (stereo unspecified): -2.97
9) CC(NC(=O)C1CCC1)c1ccc2c(c1)OCO2 (stereo unspecified): -10
10) CCOC(=O)c1cc(NC(=O)SCC(=O)O)c(C)nc1C: 0.31
11) C=CCOc1ccc(C2c3c(oc4ccccc4c3=O)C(=O)N2c2ccccn2)cc1OCC (stereo unspecified): -13.9

----------
Quick list: viability per entry.
Method Summary: MRP1 drug-resistance reversers in H69AR cells – cell-based, doxorubicin co-treatment, pilot screen (AID 601)
Measurement Conditions: H69AR cells + 2 uM doxorubicin, CellTiter-Glo, 72 h; measured here: viability with 2 uM doxorubicin; at 10 µM; stronger effect = lower value
Attribute Measured: viability (%)

1) COC(=O)c1cc(OC)c(OC)cc1NC(=O)c1ccc(Br)o1: 93
2) CC(=O)NC(CCS(C)(=O)=O)C(=O)Nc1cccc(C)c1C (stereo not drawn): 91.3
3) COc1cccc(C2C3=C(N=C4SCC(=O)N42)c2ccccc2CC3)c1OC (stereo not drawn): 78.4
4) COc1ccc(-c2nnc3sc(C(C)N4C(=O)c5ccccc5C4=O)nn23)cc1 (stereo not drawn): 101
5) CCN1C(=O)c2ccccc2S(=O)c2ccc(C(=O)NC3CC3)cc21 (stereo not drawn): 88.7
6) Cc1cc(C)c2c(=O)n(CC(=O)NCCCN3CCN(c4ccccc4F)CC3)sc2n1: 1.19
7) Cc1ccnc(NC(=O)C2CCCN(S(=O)(=O)c3cnc[nH]3)C2)c1 (stereo not drawn): 97.4
8) CCN1C(=O)c2cccc3c(NC(=O)c4ccc(S(=O)(=O)N(C)C)cc4)ccc1c23: 69.8
9) COCc1cc(C)nc(Nc2ccc(C)cc2C)c1C#N: 95.1
10) Cc1ccc(CNC(=O)C2CCCN(S(=O)(=O)c3cnc[nH]3)C2)cc1 (stereo not drawn): 92.3
11) Cn1c(=O)c2c(nc(CN3CCN(Cc4ccccc4)CC3)n2Cc2cccc(Cl)c2)n(C)c1=O: 20.9
12) C=CCn1c(COc2ccc(CC)cc2)nnc1SC/C(O)=C(\C#N)c1nc2ccccc2[nH]1: 107
13) CCCCOCCCNC(=O)c1ccc(NC(C)=O)cc1: 86.6
14) CCOc1ccc(NC(=O)CCN2CCN(c3ccccc3)CC2)cc1: 78.5
15) CC(C)c1ccc(NC(=O)CCNS(=O)(=O)c2cccc3nonc23)cc1: 93.9
16) COC(=O)c1nc2n(n1)C(c1ccc(OC)c(OC)c1)C(C(=O)OC1CCCCC1)=C(C)N2 (stereo not drawn): 98
17) CC(=O)N1c2c(cc(Br)cc2S(=O)(=O)NCC2COc3ccccc3O2)CC1C (stereo not drawn): 84.3
18) Cc1c(NC(=O)c2noc3c2CCc2ccccc2-3)c(=O)n(-c2ccccc2)n1C: 105
19) COc1ccc(S(=O)(=O)N2CCCC2C(=O)Nc2ccc(O)cc2)cc1 (stereo not drawn): 94.4
20) O=C(NC1CCCC1)C1CCCN(S(=O)(=O)c2cccc3cccnc23)C1 (stereo not drawn): 94.8
21) CCOCCCNC(=O)C(c1ccc(C)cc1)N(Cc1ccc2c(c1)OCO2)C(=O)c1cnccn1 (stereo not drawn): 98.9
22) CCOn1c(=O)c(=O)n(OCc2ccccc2)c2ccccc21: 74.5
23) CCOC(=O)CN(C(=O)c1ccccc1)c1ccccc1C: 94
24) CCC(C)(NC(=O)CNC(C)=O)C(=O)NC1CCCCC1 (stereo not drawn): 97.1
25) CCN(CC)C(=O)Oc1ccc(NC(C)=O)cc1: 94.6
26) CCn1c(C(C#N)/C(=N\S(=O)(=O)c2cccs2)c2ccccc2)nc2ccccc21 (stereo not drawn): 94.3
27) Cc1ccnc(NC(=O)C2CCC(CNc3c(N4CCCC4)c(=O)c3=O)CC2)c1 (stereo not drawn): 89
28) CCOC(=O)N1CCN(C(=O)CN(C2CCCCC2)S(=O)(=O)c2ccc(F)cc2)CC1: 91.7
29) N#CC(C(=O)Nc1ccccc1)=C1CCCCC1: 94.2
30) COc1ccc(-c2nc(N3CCCC3)[nH]c(=O)c2C#N)cc1: 85.8
31) CC1CCN(c2oc(-c3ccccc3F)nc2C#N)CC1: 84.5
32) CC1(C)CC(=O)C2=C(C1)NC(=O)CC2c1ccc(N(CCC#N)CCC#N)cc1 (stereo not drawn): 86.6
33) COc1cccc(C2CC(c3ccc(C)cc3)n3nc(N)nc3N2)c1 (stereo not drawn): 105
34) CCN1C(=O)c2ccccc2S(=O)(=O)c2ccc(C(=O)NCc3cccnc3)cc21: 91.6
35) CCn1cc(SCC(=O)NCC2CCCO2)c2ccccc21 (stereo not drawn): 94.9
36) CCOC(=O)c1ccc(N2Cc3cc(C)c(C)cc3C2)cc1O: 92.9
37) COCc1nnc(NC(=O)c2ccc(S(=O)(=O)N(C)c3ccccc3)cc2)o1: 62.2
38) COc1ccccc1-c1cc2nc(C)c(CCC(=O)NCc3ccco3)c(C)n2n1: 88.3
39) Cc1c(NC(=O)C2CCCCN2S(=O)(=O)c2ccc(Cl)cc2)c(=O)n(-c2ccccc2)n1C (stereo not drawn): 98.2
40) CC1=C(C(=O)OC(C)C)C(c2cccc(F)c2)n2ncnc2N1 (stereo not drawn): 91.7
41) O=c1c2ccccc2nc(SCc2nc(-c3ccccc3)no2)n1-c1ccc(F)cc1: 95.5
42) N#CCCN(Cc1cccnc1)C(=O)Nc1ccc(Cl)c(Cl)c1: 81.4
43) O=C(c1ccc(Br)o1)N(Cc1ccccc1)c1ccccn1: 90.7
